Entry source: ChEMBL document CHEMBL3046035

# Test system: Klebsiella pneumoniae
# Test summary: Antimicrobial activity against Klebsiella pneumoniae ATCC 10031 assessed as growth inhibition after 24 hr by broth microdilution method
# Assay type: functional
# Measurement context: ATCC 10031, 24 h

Compound | Relation qualifier | MIC / µg/mL
CCn1cc(C(=O)O)c(=O)c2cc(F)c(N3CCNCC3)cc21 [NORFLOXACIN] | ≤ | 1
Oc1ccc(-c2csc(N3N=C(c4ccccc4)CC3c3c(F)cccc3F)n2)cc1 (stereo not given) | = | 16
Oc1ccc(C2N=C(N3N=C(c4ccccc4)CC3c3c(F)cccc3F)S2)cc1 (stereo not given) | = | 16
Fc1cccc(F)c1C1CC(c2ccccc2)=NN1c1nc(-c2ccc(Br)cc2)cs1 (stereo not given) | = | 16
Fc1cccc(F)c1C1CC(c2ccccc2)=NN1c1nc(-c2ccc(Cl)cc2)cs1 (stereo not given) | = | 125
Fc1cccc(F)c1C1CC(c2ccccc2)=NN1c1nc(-c2cccnc2)cs1 (stereo not given) | = | 31.2
Cc1ccc(C2N=C(N3N=C(c4ccccc4)CC3c3c(F)cccc3F)S2)cc1 (stereo not given) | = | 4
Fc1cccc(F)c1C1CC(c2ccccc2)=NN1c1nc(-c2ccccc2)cs1 (stereo not given) | = | 62.5
O=C(O)c1cn(C2CC2)c2cc(N3CCNCC3)c(F)cc2c1=O [CIPROFLOXACIN] | ≤ | 1
Fc1cccc(F)c1C1CC(c2ccccc2)=NN1C1=NC(c2ccccc2)S1 (stereo not given) | = | 16
COc1ccc(C2N=C(N3N=C(c4ccccc4)CC3c3c(F)cccc3F)S2)cc1 (stereo not given) | = | 4
Fc1cccc(F)c1C1CC(c2ccccc2)=NN1C1=NC(c2ccc(Cl)cc2)S1 (stereo not given) | = | 16
Fc1cccc(F)c1C1CC(c2ccccc2)=NN1C1=NC(c2ccc(Cl)cc2Cl)S1 (stereo not given) | = | 31.2
O=C(Cc1csc(N2N=C(c3ccccc3)CC2c2c(F)cccc2F)n1)N/N=C/c1c(F)cccc1F (stereo not given) | = | 8
O=C1CSC(N2N=C(c3ccccc3)CC2c2c(F)cccc2F)=N1 (stereo not given) | = | 16

###

# Test system: Saccharomyces cerevisiae
# Test summary: Antimicrobial activity against Saccharomyces cerevisiae ATCC 9763 assessed as growth inhibition after 24 hr by broth microdilution method
# Format: functional
# Measurement context: ATCC 9763, 24 h
Quantity measured: MIC (µg/mL)

Compound | Target entity | Quantity measured | Readout unit | Relation qualifier | Quantitative result
OC(Cn1cncn1)(Cn1cncn1)c1ccc(F)cc1F | Saccharomyces cerevisiae | MIC | µg/mL | ≤ | 1
O=[N+]([O-])c1ccc(C2N=C(N3N=C(c4ccccc4)CC3c3c(F)cccc3F)S2)cc1 (configuration not stated) | Saccharomyces cerevisiae | MIC | µg/mL | = | 8
CCOC(=O)Cc1csc(N2N=C(c3ccccc3)CC2c2c(F)cccc2F)n1 (configuration not stated) | Saccharomyces cerevisiae | MIC | µg/mL | = | 62.5
Fc1cccc(F)c1C1CC(c2ccccc2)=NN1C1=NC(c2ccccc2)S1 (configuration not stated) | Saccharomyces cerevisiae | MIC | µg/mL | = | 62.5
Fc1cccc(F)c1C1CC(c2ccccc2)=NN1c1nc(-c2ccc(Br)cc2)cs1 (configuration not stated) | Saccharomyces cerevisiae | MIC | µg/mL | = | 62.5
Fc1cccc(F)c1C1CC(c2ccccc2)=NN1C1=NC(c2ccc(Cl)cc2)S1 (configuration not stated) | Saccharomyces cerevisiae | MIC | µg/mL | = | 4
O=C(Cc1csc(N2N=C(c3ccccc3)CC2c2c(F)cccc2F)n1)N/N=C/c1c(F)cccc1F (configuration not stated) | Saccharomyces cerevisiae | MIC | µg/mL | = | 16

###

Let's look at some compounds and their measured IC50.
# System: MCF7
# Test summary: Anticancer activity against Homo sapiens (human) MCF7 cells assessed as inhibition of cell viability after 96 hr by MTT assay
# Assay type: functional, cell-based
# Measurement context: MCF7, 96 h
Quantity measured: IC50 (nM)

Compound | Target entity | Quantitative result
NC(=S)N1N=C(c2ccccc2)CC1c1c(F)cccc1F (stereo not given) | MCF7 | 2150
Cc1ccc(/C=N/NC(=O)Cc2csc(N3N=C(c4ccccc4)CC3c3c(F)cccc3F)n2)cc1 (stereo not given) | MCF7 | 1650
Cc1ccc(-c2csc(N3N=C(c4ccccc4)CC3c3c(F)cccc3F)n2)cc1 (stereo not given) | MCF7 | 2500
Fc1cccc(F)c1C1CC(c2ccccc2)=NN1C1=NC(c2ccc(Cl)cc2Cl)S1 (stereo not given) | MCF7 | 1890
Fc1cccc(F)c1C1CC(c2ccccc2)=NN1c1nc(-c2ccccc2)cs1 (stereo not given) | MCF7 | 2230
